biological target: GABA-A receptor; alpha-1/beta-3/gamma-2 (Homo sapiens) (UniProt P14867+P18507+P28472); assay: Percent change in electrophysiological response in Xenopus oocytes expressing Alpha1-beta3-gamma2 GABA-A receptor; assay type: functional, cell-based; conditions: Oocyte
Entries and their Efficacy values follow.
Enter your answer as a number in %; do not include the unit.

Recorded Efficacy, per entry:
* Cc1cc(-c2nnc3c4c(c(OCc5ccccn5)nn23)CCCC4)no1 | 0.4
* CCOC(=O)c1ncn2c1[C@@H]1CCCN1C(=O)c1cc(OC)ccc1-2 | -12

Turning now to a further record.
GET /value?item= Cc1cccc(COc2nn3c(-c4cc(C)on4)nnc3c3ccccc23)n1 &field=Efficacy returns 15

* * *

Molecular target: GABA-A receptor; alpha-5/beta-3/gamma-2 (Homo sapiens, UniProt P18507+P28472+P31644)
Sequence (P18507 whole entry): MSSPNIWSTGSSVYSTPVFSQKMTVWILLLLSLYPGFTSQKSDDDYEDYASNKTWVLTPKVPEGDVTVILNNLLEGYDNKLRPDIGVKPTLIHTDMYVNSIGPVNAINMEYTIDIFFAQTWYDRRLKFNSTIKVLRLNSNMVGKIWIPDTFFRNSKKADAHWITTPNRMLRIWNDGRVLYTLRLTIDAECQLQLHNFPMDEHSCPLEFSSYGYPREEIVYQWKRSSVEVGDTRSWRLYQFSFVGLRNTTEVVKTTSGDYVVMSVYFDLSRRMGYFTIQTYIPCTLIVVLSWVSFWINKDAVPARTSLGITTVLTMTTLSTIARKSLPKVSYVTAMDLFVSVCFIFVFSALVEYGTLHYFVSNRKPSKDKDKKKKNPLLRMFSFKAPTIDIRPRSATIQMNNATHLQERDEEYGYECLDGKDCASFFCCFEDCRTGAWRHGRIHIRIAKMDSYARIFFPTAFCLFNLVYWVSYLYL
Sequence (P28472 whole entry): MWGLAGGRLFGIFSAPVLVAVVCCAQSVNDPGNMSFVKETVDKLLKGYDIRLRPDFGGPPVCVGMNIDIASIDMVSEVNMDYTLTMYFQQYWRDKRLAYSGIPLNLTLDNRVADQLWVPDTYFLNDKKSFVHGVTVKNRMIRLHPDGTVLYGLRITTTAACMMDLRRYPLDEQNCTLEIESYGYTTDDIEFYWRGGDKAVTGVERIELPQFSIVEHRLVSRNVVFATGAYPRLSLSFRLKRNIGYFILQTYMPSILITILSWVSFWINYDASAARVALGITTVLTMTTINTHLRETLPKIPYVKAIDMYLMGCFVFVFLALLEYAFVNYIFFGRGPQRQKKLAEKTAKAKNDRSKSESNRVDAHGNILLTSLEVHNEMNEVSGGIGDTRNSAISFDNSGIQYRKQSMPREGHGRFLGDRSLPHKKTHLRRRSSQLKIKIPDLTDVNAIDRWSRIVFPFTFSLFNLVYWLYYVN
Sequence (P31644 whole entry): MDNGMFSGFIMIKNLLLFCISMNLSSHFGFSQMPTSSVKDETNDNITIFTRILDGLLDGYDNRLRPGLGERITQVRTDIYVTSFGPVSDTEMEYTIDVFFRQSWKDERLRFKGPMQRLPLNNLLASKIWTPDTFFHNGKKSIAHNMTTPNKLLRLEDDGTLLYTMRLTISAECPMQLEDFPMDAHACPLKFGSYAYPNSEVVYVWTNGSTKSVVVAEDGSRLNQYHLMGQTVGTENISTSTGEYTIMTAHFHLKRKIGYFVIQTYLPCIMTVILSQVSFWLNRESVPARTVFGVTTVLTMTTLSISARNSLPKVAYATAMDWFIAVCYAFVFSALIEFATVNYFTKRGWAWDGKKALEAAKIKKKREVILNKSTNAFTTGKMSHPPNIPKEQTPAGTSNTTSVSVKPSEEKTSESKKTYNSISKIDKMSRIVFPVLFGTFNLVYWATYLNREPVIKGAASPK
Assay: Effective concentration against human Alpha-5-beta-3-gamma-2 GABA-A receptor was determined
experimental-endpoint: EC50 (nM)
The response must be a number in nM with no trailing unit.

Short answer for Cc1cc(-c2nnc3c4ccccc4c(OCc4ccccn4)nn23)no1 : EC50 was 2.5
